FYI, the data here is from patent US20260191907A1.

Measured fold increase of MFI over L-mCh values are reported for all entries that follow.
# TESTED TARGET: T1, FGFR4 expressed on the surface of RMS cells (Rh4-FR4 wt, Rh30) (human, UniProt P22455 22-802)
# T1 construct: Endogenous FGFR4 of the rhabdomyosarcoma cell lines; The whole entry includes the signal peptide; also called cell-surface FGFR4; Rh4-FR4 wt cells
# T1 sequence (P22455 22-802 limits assumed): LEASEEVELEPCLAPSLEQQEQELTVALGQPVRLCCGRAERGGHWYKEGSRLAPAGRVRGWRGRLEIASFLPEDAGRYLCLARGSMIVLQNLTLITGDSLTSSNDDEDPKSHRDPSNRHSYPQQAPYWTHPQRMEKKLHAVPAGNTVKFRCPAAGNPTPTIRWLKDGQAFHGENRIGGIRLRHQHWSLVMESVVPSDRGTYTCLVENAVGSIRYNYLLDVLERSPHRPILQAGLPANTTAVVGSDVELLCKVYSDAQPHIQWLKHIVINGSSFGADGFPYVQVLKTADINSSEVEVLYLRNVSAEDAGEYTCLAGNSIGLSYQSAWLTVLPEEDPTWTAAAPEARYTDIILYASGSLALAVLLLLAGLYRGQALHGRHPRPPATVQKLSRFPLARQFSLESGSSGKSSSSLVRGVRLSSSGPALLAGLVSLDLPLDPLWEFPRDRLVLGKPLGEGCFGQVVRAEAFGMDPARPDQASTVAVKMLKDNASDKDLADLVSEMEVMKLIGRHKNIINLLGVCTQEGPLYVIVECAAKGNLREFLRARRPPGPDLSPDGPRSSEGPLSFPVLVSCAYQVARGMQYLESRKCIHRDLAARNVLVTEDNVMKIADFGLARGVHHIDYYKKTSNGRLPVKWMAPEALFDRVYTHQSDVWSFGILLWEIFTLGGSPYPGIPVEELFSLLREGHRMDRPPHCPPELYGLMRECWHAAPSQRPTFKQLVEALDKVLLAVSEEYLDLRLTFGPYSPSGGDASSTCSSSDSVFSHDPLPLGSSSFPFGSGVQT
# ASSAY INFO: flow cytometry of DiR fluorescence, liposomes at 0.5 mM lipid on Rh4-FR4 wt cells; reference L-mCh
Numbers only here, please. The scale is fold.

>  <BINDER>
L-A8, VCR-loaded fluorescent liposomes decorated with nanobody A8 (other, C-terminal cysteine coupled to DSPE-PEG-maleimide on the liposomal surface, Liposome of egg sphingomyelin, cholesterol, PEG-ceramide, DSPE-PEG-maleimide and DiR, loaded with vincristine; also called FGFR4-targeted liposomes; not shown: C-terminal Myc/6xHis-tag and an additional cysteine) VHH: EVQLQASGGGFVQPGGSLRLSCAASGRTYSRDTMGWFRQAPGKEREFVSAISSRHSHTTYYADSVKGRFTISRDNSKNTVYLQMNSLRAEDTATYYCAEWDVFDMHYALPPMWYWGQGTQVTVSS

>  <fold increase of MFI over L-mCh [fold]>
6

$$$$

Query: For L-F8, VCR-loaded fluorescent liposomes decorated with nanobody F8 (other, C-terminal cysteine coupled to DSPE-PEG-maleimide on the liposomal surface, Liposome as for L-A8; also called FGFR4-targeted liposomes; not shown: C-terminal Myc/6xHis-tag and an additional cysteine) VHH: EVQLVESGGGLVQPGGSLRLSCAASGTGYALDDMGWVRQAPGKGLEWVSAISDDESMADYYADSVKGRFTISRDNSKNTVYLQMNSLRAEDTAVYYCASYKEYKYQSGHHYFAYRGQGTLVTVSS , write its fold increase of MFI over L-mCh.
Response: 28

Query: Output fold increase of MFI over L-mCh of L-B5, VCR-loaded fluorescent liposomes decorated with nanobody B5 (other, C-terminal cysteine coupled to DSPE-PEG-maleimide on the liposomal surface, Liposome as for L-A8; also called FGFR4-targeted liposomes; not shown: C-terminal Myc/6xHis-tag and an additional cysteine) VHH: EVQLQASGGGFVQPGGSLRLSCAASGRTSWLTTMGWFRQAPGKEREFVSAISSFSSKQGYYADSVKGRFTISRDNSKNTVYLQMNSLRAEDTATYYCAYASYPRHQGNGRWKDFVEYWGQGTQVTVSS
Response: 34

Query: Answer with the recorded fold increase of MFI over L-mCh of L-B1, VCR-loaded fluorescent liposomes decorated with nanobody B1 (other, C-terminal cysteine coupled to DSPE-PEG-maleimide on the liposomal surface, Liposome as for L-A8; also called FGFR4-targeted liposomes; not shown: C-terminal Myc/6xHis-tag and an additional cysteine) VHH: EVQLQASGGGFVQPGGSLRLSCAASGYTSRSSAMGWFRQAPGKEREFVSAISDLTGYPYYYADSVKGRFTISRDNSKNTVYLQMNSLRAEDTATYYCAAYQDDKWTYGSQHGKYWGQGTQVTVSS only.
Response: 12
